# measured_target: Cytochrome P450 2D6 (Homo sapiens, UniProt P10635)
# Sequence (P10635 whole entry): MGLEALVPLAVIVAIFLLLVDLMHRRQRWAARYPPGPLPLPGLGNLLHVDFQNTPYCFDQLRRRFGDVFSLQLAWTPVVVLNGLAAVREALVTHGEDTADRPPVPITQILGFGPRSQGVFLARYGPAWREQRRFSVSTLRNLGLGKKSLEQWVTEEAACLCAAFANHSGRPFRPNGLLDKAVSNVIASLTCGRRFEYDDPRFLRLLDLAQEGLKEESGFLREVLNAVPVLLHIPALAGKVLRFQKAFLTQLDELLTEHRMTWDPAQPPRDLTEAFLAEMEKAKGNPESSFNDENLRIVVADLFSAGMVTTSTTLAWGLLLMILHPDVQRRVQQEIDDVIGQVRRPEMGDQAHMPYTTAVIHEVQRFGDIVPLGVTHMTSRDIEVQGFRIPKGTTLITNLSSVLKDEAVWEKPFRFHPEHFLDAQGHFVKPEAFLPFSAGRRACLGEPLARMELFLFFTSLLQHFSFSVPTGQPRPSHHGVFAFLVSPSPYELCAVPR
property_label: IC50

Given Cc1cc(NC(=O)c2cccc(S(=O)(=O)N[C@H]3CCOC3)c2)ccc1F , state its recorded IC50.
> 10 µM

====

# measurement_protocol: Drug metabolism in human liver microsomes at 1 uM after 15 mins by LC-MS/MS analysis
# Format: ADME, microsome
# measurement_conditions: read-out: Drug metabolism
property_label: metabolised at 0.25 h, 1 µM (%)
Could you give me the number in %? Just the number is fine.

Given O=C(Nc1cccc(S(=O)(=O)NC2CCCCC2)c1)c1ccc(F)cc1 , state its recorded metabolised at 0.25 h, 1 µM.
91

Given O=C(Nc1ccc(F)cc1)c1cc(S(=O)(=O)NC2CCCCC2)ccc1F , state its recorded metabolised at 0.25 h, 1 µM.
61

Given O=C(Nc1cc(F)cc(F)c1)c1cccc(S(=O)(=O)NC2CCCC2)c1 , state its recorded metabolised at 0.25 h, 1 µM.
79

Given O=C(Nc1ccccc1)c1cc(S(=O)(=O)N2CCCCC2)c(Cl)cc1Cl , state its recorded metabolised at 0.25 h, 1 µM.
99

Given O=C(Nc1ccc(F)c(F)c1)c1cccc(S(=O)(=O)NC2CCCC2)c1 , state its recorded metabolised at 0.25 h, 1 µM.
45

Given O=C(Nc1ccc(F)cc1)c1cccc(S(=O)(=O)NC2CCC2)c1 , state its recorded metabolised at 0.25 h, 1 µM.
51

Given Cc1cc(NC(=O)c2cccc(S(=O)(=O)N[C@H]3CCOC3)c2)ccc1F , state its recorded metabolised at 0.25 h, 1 µM.
26

Given CC[C@H](C)NS(=O)(=O)c1cccc(C(=O)Nc2ccc(F)cc2)c1 , state its recorded metabolised at 0.25 h, 1 µM.
18

Given O=C(Nc1ccc(F)cc1)c1cccc(S(=O)(=O)NC2CCCC2)c1 , state its recorded metabolised at 0.25 h, 1 µM.
50

Given O=C(Nc1ccc(F)cc1)c1cccc(S(=O)(=O)N2CCCCC2)c1 , state its recorded metabolised at 0.25 h, 1 µM.
65

Given O=C(Nc1ccc(F)cc1)c1cccc(S(=O)(=O)NC2COC2)c1 , state its recorded metabolised at 0.25 h, 1 µM.
14

Given O=S(=O)(NC1CCCCC1)c1ccc(F)c(-c2ncc(-c3ccccc3)[nH]2)c1 , state its recorded metabolised at 0.25 h, 1 µM.
75

Given CC(=O)N1CCN(S(=O)(=O)c2cccc(C(=O)Nc3ccc(F)cc3)c2)CC1 , state its recorded metabolised at 0.25 h, 1 µM.
19

Given COc1cc(NC(=O)c2cccc(S(=O)(=O)N[C@H]3CCOC3)c2)ccc1F , state its recorded metabolised at 0.25 h, 1 µM.
20

Given Cc1cc(NC(=O)c2cccc(S(=O)(=O)NC3(C)COC3)c2)c(C)cc1F , state its recorded metabolised at 0.25 h, 1 µM.
1

Given Cc1ccc(NC(=O)c2cccc(S(=O)(=O)NC3CCCC3)c2)cc1F , state its recorded metabolised at 0.25 h, 1 µM.
67

Given O=C(Nc1cccnc1)c1cc(S(=O)(=O)NC2CCCCC2)ccc1F , state its recorded metabolised at 0.25 h, 1 µM.
57

Given CN1CCC(NS(=O)(=O)c2cccc(C(=O)Nc3ccc(F)cc3)c2)CC1 , state its recorded metabolised at 0.25 h, 1 µM.
10

Given CN(c1cccc(C(=O)Nc2ccc(F)cc2)c1)S(=O)(=O)C1CCCC1 , state its recorded metabolised at 0.25 h, 1 µM.
86

Given CN(C(=O)c1cccc(S(=O)(=O)NC2CCCC2)c1)c1ccc(F)cc1 , state its recorded metabolised at 0.25 h, 1 µM.
100

Given CC(C)NS(=O)(=O)c1cccc(C(=O)Nc2ccc(F)c(F)c2)c1 , state its recorded metabolised at 0.25 h, 1 µM.
18

Given O=C(Nc1ccccc1)c1cc(S(=O)(=O)NC2CCCCC2)ccc1F , state its recorded metabolised at 0.25 h, 1 µM.
63

====

# measurement_protocol: Tmax in C57BL/6 mouse at 50 mg/kg, sc by LC-MS/MS analysis
# Assay type: ADME, organism-based
# measurement_conditions: in vivo
property_label: Tmax (h)
Could you give me the number in h? Just the number is fine.

Given Cc1cc(NC(=O)c2cccc(S(=O)(=O)N[C@H]3CCOC3)c2)ccc1F , state its recorded Tmax.
1

====

# System: Hepatitis B virus
# measurement_protocol: Induction of HBV capsid core protein CP149 aggregation assessed as ratio between area under the curve for observed amount of core dimer and area under the curve for aggregated core protein at 20 uM after 24 hrs by size exclusion chromatographic analysis
Please assign f whenever Ratio is at or above 2, and t whenever it is below.

Dear reviewer, please state whether Cc1cc(NC(=O)c2cccc(S(=O)(=O)NC3CCCC3)c2)ccc1F has Ratio strictly beneath 2.
t

Dear reviewer, please state whether O=C(Nc1ccc(F)cc1)c1cc(S(=O)(=O)NC2CCCCC2)ccc1F has Ratio strictly beneath 2.
t

Dear reviewer, please state whether O=C(Nc1ccccc1)c1cc(S(=O)(=O)NC2CCCCC2)ccc1F has Ratio strictly beneath 2.
t

Dear reviewer, please state whether O=C(Nc1cccc(S(=O)(=O)NC2CCCCC2)c1)c1ccccc1 has Ratio strictly beneath 2.
f

Dear reviewer, please state whether O=C(Nc1ccc2ccccc2c1)c1cc(S(=O)(=O)NC2CCCCC2)ccc1F has Ratio strictly beneath 2.
f

Dear reviewer, please state whether CN1CCC(NS(=O)(=O)c2cccc(C(=O)Nc3ccc(F)cc3)c2)CC1 has Ratio strictly beneath 2.
f

Dear reviewer, please state whether O=C(Nc1ccc(F)cc1)c1cccc(NS(=O)(=O)C2CCCCC2)c1 has Ratio strictly beneath 2.
t

Dear reviewer, please state whether O=C(Nc1nccs1)c1cc(S(=O)(=O)NC2CCCCC2)ccc1F has Ratio strictly beneath 2.
f

Dear reviewer, please state whether O=C(Nc1ccccc1)c1cc(S(=O)(=O)N2CCCCC2)c(Cl)cc1Cl has Ratio strictly beneath 2.
t

Dear reviewer, please state whether CC1(NS(=O)(=O)c2cccc(C(=O)Nc3ccc(F)cc3)c2)COC1 has Ratio strictly beneath 2.
t

Dear reviewer, please state whether O=C(Nc1cccnc1)c1cc(S(=O)(=O)NC2CCCCC2)ccc1F has Ratio strictly beneath 2.
f

Dear reviewer, please state whether O=C(Nc1ccncc1)c1cc(S(=O)(=O)NC2CCCCC2)ccc1F has Ratio strictly beneath 2.
f

Dear reviewer, please state whether O=C(Nc1ccc(F)cc1)c1cccc(S(=O)(=O)NC2COC2)c1 has Ratio strictly beneath 2.
t

Dear reviewer, please state whether O=C(Nc1ccc(F)cc1)c1cccc(NC(=O)C2CCCCC2)c1 has Ratio strictly beneath 2.
f

Dear reviewer, please state whether O=C(Nc1ccc(F)cc1)c1cccc(C(=O)NC2CCCCC2)c1 has Ratio strictly beneath 2.
f

Dear reviewer, please state whether O=C(Nc1ccccc1)c1cccc(S(=O)(=O)NC2CCCC2)c1 has Ratio strictly beneath 2.
t

Dear reviewer, please state whether O=C(Nc1ccc(F)cc1)c1cccc(S(=O)(=O)NC2CCCCC2)c1 has Ratio strictly beneath 2.
t

Dear reviewer, please state whether CN(C)S(=O)(=O)c1cccc(C(=O)Nc2ccc(F)cc2)c1 has Ratio strictly beneath 2.
t

====

# measured_target: Core antigen (Hepatitis B virus)
# measurement_protocol: Induction of HBV Maleimidyl BoDIPY-FL-labeled capsid Cp*150 mutant aggregation incubated for 30 mins measured every 10 secs for 30 mins by fluorescence quenching assay
Active and inactive are the calls of the source. The calls are words filed in the database; no cut-off is given here.
Write down one outcome, taken from True = active, False = inactive

Recorded call for CC(C)NS(=O)(=O)c1cccc(C(=O)Nc2ccc(F)c(F)c2)c1 ?
True

Recorded call for O=C(Nc1nccs1)c1cc(S(=O)(=O)NC2CCCCC2)ccc1F ?
False

Recorded call for O=C(Nc1cc(F)cc(F)c1)c1cccc(S(=O)(=O)NC2CCCC2)c1 ?
True

Recorded call for CN1CCN(S(=O)(=O)c2cccc(C(=O)Nc3ccc(F)cc3)c2)CC1 ?
True

Recorded call for Cc1cc(F)cc(NC(=O)c2cccc(S(=O)(=O)NC3CCCC3)c2)c1 ?
True

====

Consider the following compounds; for each one, report its solubility kinetic at 4 h.
# measurement_protocol: Kinetic solubility of the compound at pH 7.4 after 4 hrs by UPLC-UV analysis
# Format: physicochemical
# measurement_conditions: buffer, read-out: Kinetic_solubility
Could you give me the number in µM? Just the number is fine.

Given CN(C)S(=O)(=O)c1cccc(C(=O)Nc2ccc(F)cc2)c1 , state its recorded solubility kinetic at 4 h.
43

Given O=C(Nc1ccc(F)cc1)c1cccc(S(=O)(=O)N2CCCCC2)c1 , state its recorded solubility kinetic at 4 h.
9

Given O=C(Nc1ccccc1)c1cc(S(=O)(=O)N2CCCCC2)c(Cl)cc1Cl , state its recorded solubility kinetic at 4 h.
2

Given O=C(Nc1cc(F)cc(F)c1)c1cccc(S(=O)(=O)NC2CCCC2)c1 , state its recorded solubility kinetic at 4 h.
28

====

# measurement_protocol: Drug uptake in humanized mouse liver at 200 mg/kg, sc after 24 hrs by LC-MS/MS analysis
# Type: ADME, organism-based
# measurement_conditions: read-out: Drug uptake
property_label: concentration at 24 h (ng/g)
Could you give me the number in ng/g? Just the number is fine.

Given Cc1cc(NC(=O)c2cccc(S(=O)(=O)N[C@H]3CCOC3)c2)ccc1F , state its recorded concentration at 24 h.
4880

The measured values listed here are drawn from ChEMBL document CHEMBL4138314.
